# measurement_protocol: qHTS profiling for inhibitors of Plasmodium falciparum proliferation (AID 504749);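 also: 0% = DMSO vehicle and full inhibition = artemisinin control; nearly all actives have a fitted effect of over 60% in size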
# measurement_parameters: P. falciparum in erythrocytes, SYBR Green DNA, 72 h; at 28.7 µM (top of the series); parasite line A
Records with an inconclusive call do not appear. Calls of active or inactive are those of the source. Calls follow the shape of the dose curve; as a rule, active = well fitted inhibition curve with a large enough effect; inconclusive = small, poorly fitted or top-dose-only effect; inactive = flat fitted curve, though single readings scatter.
observation_type: activity, negative = inhibition

Worked cases, activity, negative = inhibition given:
Cc1ccc(S(=O)(=O)O)cc1C: 8.18% (inactive)
CC(C)(C)CC(C)(C)c1ccc(OCCO)cc1: -21% (inactive)
CCOC(=O)C1=C(COCCN)NC(C)=C(C(=O)OC)C1c1ccccc1Cl (centres undefined): -0.523% (inactive)

Record activity, negative = inhibition per entry; entries follow.
1. O=C(O)/C=C/C(=O)Nc1ccc(S(=O)(=O)Nc2nccs2)cc1
2. NC(=O)C1c2ccccc2CCc2ccccc21
3. O=C(O)/C=C/c1ccccc1
4. FC(F)(F)C(F)(F)C(F)(F)C(F)(F)C(F)(F)F

Response:
17.5% (inactive)
-4.87% (inactive)
-6.43% (inactive)
11% (inactive)

Record activity, negative = inhibition per entry; entries follow.
1. CCOc1ccc(NC(=S)Nc2ccc(OCC)cc2)cc1
2. FC(F)(F)COCC(F)(F)F

Response:
["1.76% (inactive)", "12.5% (inactive)"]

----------
# Test system: CP266
# measurement_protocol: qHTS profiling for inhibitors of Plasmodium falciparum proliferation (AID 504749);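 also: 0% = DMSO vehicle and full inhibition = artemisinin control; nearly all actives have a fitted effect of over 60% in size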
# measurement_parameters: P. falciparum in erythrocytes, SYBR Green DNA, 72 h; series mostly up to 28.7 µM
# Protocol: NIH National Institute of Allergy and Infectious Diseases [NIAID] NIH Chemical Genomics Center [NCGC] […] Because mature erythrocytes lack DNA, only Plasmodium-derived DNA is detected. NCGC Assay Protocol Summary: The SYBR Green viability assay was adapted from a method described previously (Plouffe et al., 2008). […] The following morning, fluorescence intensity at 485(14) nm excitation and 535(25) nm emission wavelengths was measured on an EnVision (Perkin Elmer) plate reader. […]
Records with an inconclusive call do not appear. Activity calls are given as the source filed them. Calls follow the shape of the dose curve; as a rule, active = well fitted inhibition curve with a large enough effect; inconclusive = small, poorly fitted or top-dose-only effect; inactive = flat fitted curve, though single readings scatter.
observation_type: outcome

Cc1ccccn1: inactive
NCC[C@H](O)C(=O)N[C@@H]1C[C@H](N)[C@@H](O[C@H]2O[C@H](CN)CC[C@H]2N)[C@H](O)[C@H]1O[C@H]1O[C@H](CO)[C@@H](O)[C@H](N)[C@H]1O: inactive
CC(C)c1nc(N(C)S(C)(=O)=O)nc(-c2ccc(F)cc2)c1/C=C/C(O)CC(O)CC(=O)O (stereo not given): inactive
O=c1[nH]c(=O)n([C@H]2C[C@H](O)[C@@H](CO)O2)cc1/C=C/Br: inactive
O=c1n(CC2CO2)c(=O)n(CC2CO2)c(=O)n1CC1CO1 (stereo not given): inactive
Cc1ccc(C(C)(C)c2ccc(C)cc2)cc1: inactive
CS(=O)(=O)OCC(O)C(O)COS(C)(=O)=O (stereo not given): inactive
CCOc1ccc(NC(=S)Nc2ccc(OCC)cc2)cc1: inactive
NC(=O)[C@H]1O[C@@H](O)[C@H](O)[C@@H](O)[C@@H]1O: inactive

Prompt: Given CCN(CC)CCOc1ccc2nc(N(C)C)sc2c1 , respond with its outcome.
Response: inactive

----------
# measurement_protocol: Drug repurposing screens with cells derived from glioblastoma tumor samples (AID 1345199); also: potency is read from the fitted curve at half-maximal effect; nearly all actives have a fitted effect of over 40% in size
# measurement_parameters: GBM patient neurospheres viability, ATP luminescence, 48 h; tumour line A
# Protocol: CD133+ cells were isolated from GBM patient biopsies and cultured as neurospheres. Neurospheres from four patients were used to screen the NCATS pharmaceutical collection (NPC) library of approved drugs and bioactive compounds. […] The neurospheres were incubated with drugs for 48 hours in 1536-well format, then assayed with an ATP content cell viability assay. […]
Results filed as inconclusive are left out. Activity calls are given as the source filed them. Calls come from the whole dose curve; as a rule, active = well fitted inhibition curve with a large enough effect; inconclusive = small, poorly fitted or top-dose-only effect; inactive = flat fitted curve, though single readings scatter.
Field: Potency. Provide a value for each of the molecules that follow.

Worked cases, Potency given:
CC(C)(C)NCC(O)CSc1nc(-c2ccc(C(N)=O)s2)cs1 (stereo not given): 17.8 µM (active)
N#Cc1ccc2c(c1)N(CCCN1CCC(O)CC1)c1ccccc1S2: 5.01 µM (active)
CC(C)N1CCN(c2ccc(OC[C@H]3CO[C@](Cn4cncn4)(c4ccc(Cl)cc4Cl)O3)cc2)CC1: 2.51 µM (active)
CCCCC[C@H](O)/C=C/[C@H]1[C@H](O)CC(=O)[C@@H]1CCCCCCC(=O)O: 11.2 µM (active)
CC(C)CCCCCCc1ccc(O)cc1: 22.4 µM (active)
c1ccc2cc(C3=NCCN3)ccc2c1: 11.2 µM (active)

Record Potency per entry; entries follow.
1. C=CCN1CCCC1CNC(=O)c1cc(S(N)(=O)=O)cc(OC)c1OC (stereo not given)
2. CC1=C(/C=C/C(C)=C/C=C/C(C)=C/C(=O)Oc2c(C)c(C)c3c(c2C)CC[C@@](C)(CCC[C@H](C)CCC[C@H](C)CCCC(C)C)O3)C(C)(C)CCC1
3. CC(=O)[C@H]1CC[C@H]2[C@@H]3C=CC4=CC(=O)CC[C@@]4(C)[C@H]3CC[C@]12C
4. CCCCC(=O)O[C@H]1CC[C@H]2[C@@H]3CCc4cc(O)ccc4[C@H]3CC[C@]12C
5. COc1cc2c(cc1OC)[C@@H](c1ccccc1)CN(C)CC2
6. CCSc1ccc2c(c1)N(CCCN1CCN(C)CC1)c1ccccc1S2
7. CCOC(=O)C1=C(COCCN)NC(C)=C(C(=O)OC)C1c1ccccc1Cl (stereo not given)

Response:
1. 35.5 µM (active)
2. 25.1 µM (active)
3. 3.55 µM (active)
4. 28.2 µM (active)
5. 20 µM (active)
6. 6.31 µM (active)
7. 11.2 µM (active)

----------
# measurement_protocol: Cell Viability - LYMP2-002 (AID 977);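 also: compound exposure lasted 24 h at 37 °C; plate controls were DMSO only for no effect and 92 µM tetraoctylammonium bromide for full effect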
# measurement_parameters: LYMP2-002 lymphoblastoid cell viability, qHTS; series mostly up to 92.2 µM
Records with an inconclusive call do not appear. Activity calls are given as the source filed them. The call rests on the fitted dose curve; in most records, active means well fitted cell-killing curve with a large enough effect; inconclusive means small, poorly fitted or top-dose-only effect; inactive means flat fitted curve, though single readings scatter.
observation_type: outcome

Nc1nccs1: inactive
OCC(O)CO: inactive
CC/C=C\C/C=C\C/C=C\CCCCCCCC(=O)O: inactive
Cc1ncc[nH]1: inactive
ClC(Cl)Cl: inactive
NC(N)=O: inactive

Record outcome per entry; entries follow.
1. CC1=CCC2CC1C2(C)C (stereo not given)
2. Nc1ncnc2c1ncn2[C@H]1CC[C@@H](CO)O1
3. OC[C@H]1O[C@@H]2O[C@H]3[C@H](O)[C@@H](O)[C@@H](O[C@H]4[C@H](O)[C@@H](O)[C@@H](O[C@H]5[C@H](O)[C@@H](O)[C@@H](O[C@H]6[C@H](O)[C@@H](O)[C@@H](O[C@H]7[C@H](O)[C@@H](O)[C@@H](O[C@H]1[C@H](O)[C@H]2O)O[C@@H]7CO)O[C@@H]6CO)O[C@@H]5CO)O[C@@H]4CO)O[C@@H]3CO
4. Oc1cccc(O)c1O

Response:
1: inactive; 2: inactive; 3: inactive; 4: inactive

----------
# target_entity: Cytochrome P450 2C9 (Homo sapiens) (UniProt P11712)
# Sequence (P11712 whole entry, looked up): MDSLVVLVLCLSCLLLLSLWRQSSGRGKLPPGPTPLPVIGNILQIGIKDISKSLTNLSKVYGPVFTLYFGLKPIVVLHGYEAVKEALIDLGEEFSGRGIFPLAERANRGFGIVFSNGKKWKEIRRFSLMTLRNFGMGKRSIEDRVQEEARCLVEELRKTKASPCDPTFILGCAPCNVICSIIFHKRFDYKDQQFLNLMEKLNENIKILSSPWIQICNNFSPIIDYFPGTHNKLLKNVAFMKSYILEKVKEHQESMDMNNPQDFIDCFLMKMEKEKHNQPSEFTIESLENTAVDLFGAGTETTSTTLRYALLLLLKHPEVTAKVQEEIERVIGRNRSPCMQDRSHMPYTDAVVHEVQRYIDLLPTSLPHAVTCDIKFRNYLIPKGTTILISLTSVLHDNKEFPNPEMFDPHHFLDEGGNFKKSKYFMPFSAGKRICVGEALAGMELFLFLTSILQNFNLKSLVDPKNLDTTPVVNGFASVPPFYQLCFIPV
# measurement_protocol: Cytochrome P450 family 2 subfamily C member 9 (CYP2C9) small molecule antagonists: luciferase biochemical (cell-free) qHTS assay (AID 1645842); also: nearly all actives have a fitted effect of over 55% in size
# measurement_parameters: P450-Glo CYP2C9 enzyme assay, luciferin luminescence; series mostly up to 57.4 µM
Results filed as inconclusive are left out. The source made the active and inactive calls. Calls follow the shape of the dose curve; as a rule, active = well fitted inhibition curve with a large enough effect in the repeat runs; inconclusive = weak or mixed curves; inactive = no such curve, though single readings can be large or run the other way.
Tick one outcome: active, inactive

COC(=O)[C@@H](N)CS: active
Cn1c(O)c(N=NC(N)=S)c2ccccc21: active

Prompt: // param item: CCC(Cc1c(I)cc(I)c(O)c1I)C(=O)O (stereo unspecified) ; yields the recorded call
Response: active

Prompt: // param item: Cc1cc(-c2ccc(N=Nc3c(S(=O)(=O)O)cc4cc(S(=O)(=O)O)cc(N)c4c3O)c(C)c2)ccc1N=Nc1c(S(=O)(=O)O)cc2cc(S(=O)(=O)O)cc(N)c2c1O ; yields the recorded call
Response: active

Prompt: // param item: FC(F)OC(Cl)C(F)(F)F (stereo unspecified) ; yields the recorded call
Response: inactive

Prompt: // param item: S=C=Nc1ccc(N=C=S)cc1 ; yields the recorded call
Response: inactive

----------
# measurement_protocol: qHTS profiling for inhibitors of Plasmodium falciparum (3D7) proliferation (AID 743322);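 also: infected erythrocytes exposed to compound for 72 h before lysis; 100% = DMSO vehicle wells and 0% = 0.29 µM artemisinin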
# measurement_parameters: P. falciparum 3D7 proliferation; at 28.7 µM (top of the series) unless noted
Field: remaining parasite growth % (stronger effect = lower value). Provide a value for each of the compounds that follow.
Give bare numbers, in %.

CCN(CC)C(=S)S: 87.7
CCN(CC)CCOCCOC(=O)C(CC)(CC)c1ccccc1: 90.6

Query compound follows.
Prompt: Given C#C[C@]1(O)CC[C@@H]2[C@H]3CCC4=CC(=O)CC[C@H]4[C@H]3C(=C)C[C@@]21CC , respond with its remaining parasite growth % (stronger effect = lower value).
Response: 38.1

----------
# measurement_protocol: qHTS Assay for Identifying Gametocytocidal Compounds (AID 743244);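 also: % is scaled to controls: 0 for no effect and ±100 for the full control effect; actives lower the fluorescent signal which means gametocytes are killed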
# measurement_parameters: P. falciparum 3D7 stage III-V gametocytes, alamarBlue, 72 h; stronger effect = lower value
Results filed as inconclusive are left out.
observation_type: max response (%)
Give bare numbers, in %.

CC(C)O: 0.211

Record max response per entry; entries follow.
1. CO/N=C(\C(=O)N[C@@H]1C(=O)N2C(C(=O)O)=C(CSc3nc(C)c(CC(=O)O)s3)CS[C@H]12)c1csc(N)n1
2. CC(C)(O/N=C(\C(=O)N[C@@H]1C(=O)N2C(C(=O)[O-])=C(C[n+]3ccccc3)CS[C@H]12)c1csc(N)n1)C(=O)O

Response:
1: 4.68; 2: 20.4

Record max response per entry; entries follow.
1. CC1(C)[C@H]2CC[C@]1(C)[C@H](O)C2
2. COC(=O)[C@@H](N)CS
3. CCCCCCCCCCCCCCCCCC(=O)OCC(C)O (stereo not drawn)

Response:
1: 0.139; 2: 0.957; 3: 2.45
